This section presents variants with their documented one-hybrid fitness for binding parS DNA values.
B1: Caulobacter ParB omega fusion; a variant is named by its letters at X, in order, B8GW30 (parent)
chain: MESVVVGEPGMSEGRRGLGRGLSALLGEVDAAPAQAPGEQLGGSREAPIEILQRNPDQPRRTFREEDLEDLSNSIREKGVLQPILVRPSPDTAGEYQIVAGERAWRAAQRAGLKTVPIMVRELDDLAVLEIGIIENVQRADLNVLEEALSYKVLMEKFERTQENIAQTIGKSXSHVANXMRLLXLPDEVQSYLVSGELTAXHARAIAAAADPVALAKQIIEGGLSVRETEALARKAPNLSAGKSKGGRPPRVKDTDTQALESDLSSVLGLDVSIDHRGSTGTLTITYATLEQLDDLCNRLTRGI

Variants of: B1
assay.info: one-hybrid fitness for binding parS DNA (scaled: cognate 1, non-cognate 0); higher = stronger binding
particulars: with parS DNA site
Over roughly 81,000 sequences, “one-hybrid fitness for binding parS DNA” has its median near -0.17; the highest 2% begin near 0.51. For the sample, the highest values were picked, then their nearest neighbours and some sequences at random.

Below, each entry is followed by its recorded one-hybrid fitness for binding parS DNA result.
1. REYS = 0.287
2. RMPL = ≤ 0.2
3. REYG = ≤ 0.2
4. WMPS = ≤ 0.2
5. RWNT = 0.682

Ask | For RWET , what is its reported one-hybrid fitness for binding parS DNA?
Reply | 0.437

Ask | Quick check: one-hybrid fitness for binding parS DNA of TSHR ?
Reply | ≤ 0.2

Ask | For RSTN , what is its reported one-hybrid fitness for binding parS DNA?
Reply | 0.461

Ask | Reported one-hybrid fitness for binding parS DNA, variant LCWL : ____
Reply | ≤ 0.2

Ask | Given ADNQ , state its recorded one-hybrid fitness for binding parS DNA.
Reply | ≤ 0.2

Ask | What value of one-hybrid fitness for binding parS DNA has been recorded for this entry: RPCN
Reply | ≤ 0.2

Ask | Consider the variant shown here: SRQV What is its recorded one-hybrid fitness for binding parS DNA?
Reply | ≤ 0.2

Ask | Given LWSA , state its recorded one-hybrid fitness for binding parS DNA.
Reply | ≤ 0.2

Ask | Which one-hybrid fitness for binding parS DNA reading was recorded for the variant ARLY ?
Reply | ≤ 0.2

Ask | Value lookup for one-hybrid fitness for binding parS DNA; key = IPVF
Reply | ≤ 0.2

Ask | Endpoint output: one-hybrid fitness for binding parS DNA of AQEG . Value?
Reply | ≤ 0.2

Ask | # input variant: REKN ; wanted: its one-hybrid fitness for binding parS DNA
Reply | ≤ 0.2

Ask | Reported one-hybrid fitness for binding parS DNA for RIHF : what is it?
Reply | ≤ 0.2
